Values compiled from patent US20160168247A1.

- system: human CD3 (on the human T-cell line Jurkat or on human T-cells) (human, UniProt P09693 23-182; P20963 22-164)
- Sequence (chain, as listed by the source, chain 1 of 4): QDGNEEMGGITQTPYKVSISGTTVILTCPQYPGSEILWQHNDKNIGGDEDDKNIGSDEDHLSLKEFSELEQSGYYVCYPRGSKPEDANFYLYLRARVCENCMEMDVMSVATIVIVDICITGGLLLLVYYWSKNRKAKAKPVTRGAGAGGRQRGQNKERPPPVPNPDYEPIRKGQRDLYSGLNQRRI
- Sequence (chain, as listed by the source, chain 2 of 4): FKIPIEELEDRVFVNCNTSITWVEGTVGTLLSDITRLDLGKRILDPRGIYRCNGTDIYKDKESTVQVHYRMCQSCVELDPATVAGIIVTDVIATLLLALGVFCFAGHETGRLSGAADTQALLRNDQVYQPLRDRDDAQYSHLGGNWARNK
- Sequence (P09693 23-182, chain 3 of 4): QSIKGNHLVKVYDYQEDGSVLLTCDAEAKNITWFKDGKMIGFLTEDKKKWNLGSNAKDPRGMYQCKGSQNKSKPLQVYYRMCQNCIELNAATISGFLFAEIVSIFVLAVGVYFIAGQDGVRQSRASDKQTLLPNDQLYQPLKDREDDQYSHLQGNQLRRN
- Sequence (P20963 22-164, chain 4 of 4): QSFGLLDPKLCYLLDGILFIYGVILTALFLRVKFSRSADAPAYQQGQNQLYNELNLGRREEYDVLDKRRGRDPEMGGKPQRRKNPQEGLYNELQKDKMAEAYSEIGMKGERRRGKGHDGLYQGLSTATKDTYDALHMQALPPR
- run description: FACS binding
EC50 listing for selected binders.
Numeric answer only, unit µg/mL assumed.

Take a look at these entries with their results.
binder	EC50, µg/mL
IgG1-huCD3-H1L3-LFLEDA (antibody, V domains shown) VH: EVKLVESGGGLVQPGGSLRLSCAASGFTFNTYAMNWVRQAPGKGLEWVARIRSKYNNYATYYADSVKDRFTISRDDSKSSLYLQMNNLKTEDTAMYYCVRHGNFGNSYVSWFAYWGQGTLVTVSS VL: QAVVTQEPSFSVSPGGTVTLTCRSSTGAVTTSNYANWVQQTPGQAFRGLIGGTNKRAPGVPARFSGSILGNKAALTITGAQADDESDYYCALWYSNLWVFGGGTKLTVL	0.11
IgG1-huCD3-H4L3-LFLEDA (antibody, V domains shown) VH: EVKLVESGGGLVKPGRSLRLSCAASGFTFNTYAMNWVRQAPGKGLEWVARIRSKYNNYATYYADSVKDRFTISRDDSKSILYLQMNSLKTEDTAMYYCVRHGNFGNSYVSWFAYWGQGTMVTVSS VL: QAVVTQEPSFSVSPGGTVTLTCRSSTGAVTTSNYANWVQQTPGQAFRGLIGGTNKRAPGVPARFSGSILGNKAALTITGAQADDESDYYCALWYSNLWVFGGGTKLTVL	0.08
IgG1-CD3-LFLEDA (parental chimeric CD3 antibody with non-activating LFLEDA mutations) (antibody, V domains shown) VH: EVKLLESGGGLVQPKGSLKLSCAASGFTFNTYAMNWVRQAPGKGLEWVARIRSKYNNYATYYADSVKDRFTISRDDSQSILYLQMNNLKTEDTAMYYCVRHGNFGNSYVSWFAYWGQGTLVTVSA VL: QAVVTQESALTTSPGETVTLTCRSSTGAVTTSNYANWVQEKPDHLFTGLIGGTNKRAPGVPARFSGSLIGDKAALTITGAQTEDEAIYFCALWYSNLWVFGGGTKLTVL	0.27

# ---- query binder ----
Give me measured EC50, please, for this binder: IgG1-huCD3-H3L3-LFLEDA (antibody, V domains shown) VH: EVKLVESGGGLVKPGRSLRLSCAASGFTFNTYAMNWVRQAPGKGLEWVARIRSKYNNYATYYADSVKDRFTISRDDSKSILYLQMNSLKTEDTAMYYCVRHGNFGNSYVSWFAYWGQGTLVTVSS VL: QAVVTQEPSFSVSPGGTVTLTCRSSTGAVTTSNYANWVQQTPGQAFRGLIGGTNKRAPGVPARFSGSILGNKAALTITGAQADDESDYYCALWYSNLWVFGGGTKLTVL
0.08
